- Assay summary: chemical genetic growth profiling, strain panel (AID 1159580);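 further: tested at 20 µM; growth read once vehicle control cultures reached saturation at 30 °C; 1 = growth at the plate median or of vehicle wells; lower values mean less growth of the strain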
- Measurement conditions: S. cerevisiae deletion strains, growth OD, locus YER123W, strain YCK3
About 2,000 (36%) of roughly 5,500 compounds were called active. Inconclusive results (about 18%) are left out. No stated cut-off is given here; in the data, active means normalized growth mostly below about 0.91 (no sharp cut-off); inconclusive means no clear call, values can overlap the other calls; inactive means mostly above about 0.92. This is one part of the list.
Outcome codes: TRUE (active), FALSE (inactive)

Smiles repr: Clc1cccc(Nc2ncc(-c3ccc4c(c3)OCCCO4)s2)c1
Label class: FALSE

Smiles repr: Cc1c(S(=O)(=O)Nc2cccc([N+](=O)[O-])c2)sc2ccc(Cl)cc12
Label class: FALSE

Smiles repr: Clc1ccc(Oc2ccnc3cc(Cl)ccc23)cc1
Label class: TRUE

Smiles repr: O=S(=O)(NCc1ccc(C(F)(F)F)cc1)c1cc(Br)c(Br)s1
Label class: FALSE

Smiles repr: O=C(Nc1cc(Cl)ccc1O)c1ccccc1CSc1ccc(Cl)cc1
Label class: FALSE

Smiles repr: O=S(=O)(NCc1ccc(C(F)(F)F)cc1)c1cccc(C(F)(F)F)c1
Label class: FALSE

Smiles repr: O=S(=O)(Nc1cc(Cl)c(Cl)cc1Cl)c1cc(C(F)(F)F)cc(C(F)(F)F)c1
Label class: FALSE

Smiles repr: N#CC(C#N)=Cc1c(-c2ccccc2Cl)[nH]c2ccccc12
Label class: FALSE

----------
- Assay summary: chemical genetic growth profiling, strain panel (AID 1159580)
- Measurement conditions: S. cerevisiae deletion strains, growth OD, locus YLR262C, strain YPT6 (second series), hits give low values
Hit rate of the full screen: of about 5,500 compounds, about 2,000 (36%) were called active. Inconclusive results (about 18%) are left out. The list shows a part of the results.
Consider the cut-off 1. If the recorded normalized growth is strictly smaller, the label is y; if not, the label is n.

Molecule: CC(=O)O[C@H]1CC[C@@]2(C)C(C[C@@H](OC(C)=O)[C@]3(C)C2CC[C@@]2(C)[C@H](c4ccoc4)OC(=O)[C@H]4O[C@]423)C1(C)C (stereo partly specified)
Label class: n
--
Molecule: CC(=O)O[C@H]1C[C@@H](OC(C)=O)C(C)(C)C2C[C@@H](OC(C)=O)[C@]3(C)C(CC[C@@]4(C)[C@H](c5ccoc5)OC(=O)[C@H]5O[C@]543)[C@]21C (stereo partly specified)
Label class: y

----------
- Assay summary: chemical genetic growth profiling, strain panel (AID 1159580);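 further: tested at 20 µM; growth read once vehicle control cultures reached saturation at 30 °C; 1 = growth at the plate median or of vehicle wells; lower values mean less growth of the strain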
- Measurement conditions: S. cerevisiae deletion strains, growth OD, locus YEL037C, strain rad23, hits give low values
In all, about 5,500 compounds went through this assay and about 2,000 (36%) were called active. Roughly 18% stayed inconclusive and do not appear here. Some of the results follow.

Compound: CC(=O)O[C@H]1C[C@@H](OC(C)=O)C(C)(C)C2C[C@@H](OC(C)=O)[C@]3(C)C(CC[C@@]4(C)[C@H](c5ccoc5)OC(=O)[C@H]5O[C@]543)[C@]21C (stereo partly drawn)
normalized growth: 0.994

Compound: CC(=O)O[C@H]1CC[C@@]2(C)C(C[C@@H](OC(C)=O)[C@]3(C)C2CC[C@@]2(C)[C@H](c4ccoc4)OC(=O)[C@H]4O[C@]423)C1(C)C (stereo partly drawn)
normalized growth: 0.988

Compound: CC(=O)O[C@@H]1CC2C(C)(C)[C@H](O)CC[C@]2(C)C2CC[C@@]3(C)[C@H](c4ccoc4)OC(=O)C4OC43[C@@]21C (stereo partly drawn)
normalized growth: 1.01

Compound: Cc1cccc(C)c1NC(=O)C1CCCCN1C (stereo not drawn)
normalized growth: 0.996

Compound: C[C@]12C=CC(=O)C=C1CCC1C2[C@@H](O)C[C@@]2(C)C1CC[C@]2(O)C(=O)CO (stereo partly drawn)
normalized growth: 0.989

Compound: CC1(C)C(=O)[C@@H]2O[C@@H]2[C@@]2(C)C1C[C@@H](O)[C@]1(C)C2CC[C@@]2(C)[C@H](c3ccoc3)OC(=O)C3OC321 (stereo partly drawn)
normalized growth: 0.988

Compound: COc1ccc(-c2oc3cc(OC)c(OC)c(OC)c3c(=O)c2OC)cc1OC
normalized growth: 0.956

Compound: Cc1onc(-c2ccccc2)c1-c1ccc(S(N)(=O)=O)cc1
normalized growth: 1

----------
- Assay summary: chemical genetic growth profiling, strain panel (AID 1159580);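 further: tested at 20 µM; growth read once vehicle control cultures reached saturation at 30 °C; 1 = growth at the plate median or of vehicle wells; lower values mean less growth of the strain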
- Measurement conditions: S. cerevisiae deletion strains, growth OD, locus YDL074C, strain BRE1
The whole screen tested about 5,500 compounds, of which about 2,000 (36%) were called active. Not shown: some 18% with an inconclusive outcome. No stated cut-off is given here; in the data, active means normalized growth mostly below about 0.91 (no sharp cut-off); inconclusive means no clear call, values can overlap the other calls; inactive means mostly above about 0.92. The list shows a part of the results.
Outcome codes: active, inactive

Compound: C[C@]12CCC3c4ccc(OC(=O)CCC(=O)O)cc4CCC3C1CCC2=O (stereo partly drawn)
Label class: inactive

Compound: CC(=O)OC1CC(OC(C)=O)C2(C)C(CC(OC(C)=O)C3(C)C2CCC2(C)C(c4ccoc4)OC(=O)C4OC423)C1(C)C (stereo not drawn)
Label class: inactive

Compound: CC(=O)O[C@@H]1CC2C(C)(C)[C@H](O)CC[C@]2(C)C2CC[C@@]3(C)[C@H](c4ccoc4)OC(=O)[C@H]4O[C@]43[C@@]21C (stereo partly drawn)
Label class: inactive

Compound: O=C(O)C(O)C(O)C(O)C(O)C(=O)O (stereo not drawn)
Label class: inactive

Compound: C=C[C@@]1(C)CC(=O)[C@@]2(O)[C@](C)(O1)[C@@H](OC(C)=O)[C@@H](O)C1C(C)(C)CC[C@H](O)[C@@]12C (stereo partly drawn)
Label class: inactive

Compound: CC12CCC3C(=CCc4cc(O)ccc43)C1CCC2=O (stereo not drawn)
Label class: inactive

Compound: Cc1ccc(C(=O)c2ccc(CC(=O)O)n2C)cc1
Label class: inactive

Compound: C[C@]12CCC3c4ccc(O)cc4CCC3C1CCC2=O (stereo partly drawn)
Label class: active

Compound: CC(=O)O[C@@H]1CC2C(C)(C)C(=O)C3OC3[C@]2(C)C2CC[C@@]3(C)[C@H](c4ccoc4)OC(=O)C4OC43[C@@]21C (stereo partly drawn)
Label class: inactive

Compound: Fc1ccc([C@@H]2CCNC[C@H]2COc2ccc3c(c2)OCO3)cc1
Label class: inactive

Compound: OC[C@H]1O[C@@H](n2cnc3c(NCc4ccco4)ncnc32)[C@H](O)[C@@H]1O
Label class: inactive

Compound: COP(=S)(OC)Oc1ccc([N+](=O)[O-])cc1
Label class: inactive

Compound: C=NC(C(=O)NC1C(=O)N2C1SC(C)(C)C2C(=O)O)c1ccccc1 (stereo not drawn)
Label class: inactive

Compound: CC(=O)Oc1ccc2c(c1)CCC1C2CC[C@]2(C)C(=O)CCC12 (stereo partly drawn)
Label class: inactive

Compound: C[C@]12CCC3c4ccc(OC(=O)c5ccccc5)cc4CCC3C1CCC2=O (stereo partly drawn)
Label class: inactive

Compound: CN[C@@H]1C(OC2[C@H](O[C@H]3[C@H](O)[C@@H](O)[C@H](N=C(N)N)[C@@H](O)[C@@H]3N=C(N)N)OC(C)[C@]2(O)CO)OC(CO)C(O)C1O (stereo partly drawn)
Label class: inactive

Compound: CC(=O)O[C@@H]1CC2C(C)(C)[C@@H](O)CC[C@]2(C)C2CC[C@@]3(C)[C@H](c4ccoc4)OC(=O)[C@H]4O[C@]43[C@@]21C (stereo partly drawn)
Label class: inactive

Compound: COC[C@]12CN(C=O)C3[C@@H]4[C@H](OC)C1[C@]3(C1CC3(O)C(OC)C(O)C4(OC(C)=O)C1C3OC(=O)c1ccccc1)[C@@H](OC)C[C@H]2O (stereo partly drawn)
Label class: inactive

----------
- Assay summary: chemical genetic growth profiling, strain panel (AID 1159580);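 further: tested at 20 µM; growth read once vehicle control cultures reached saturation at 30 °C; 1 = growth at the plate median or of vehicle wells; lower values mean less growth of the strain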
- Measurement conditions: S. cerevisiae deletion strains, growth OD, locus YPL051W, strain arl3
About 2,000 (36%) of roughly 5,500 compounds were called active. Roughly 18% stayed inconclusive and do not appear here. No stated cut-off is given here; in the data, active means normalized growth mostly below about 0.91 (no sharp cut-off); inconclusive means no clear call, values can overlap the other calls; inactive means mostly above about 0.92. The list shows a part of the results.
Outcome codes: active, inactive

Compound: O=C(O)[C@@H](S)[C@@H](S)C(=O)O
Label class: active
--
Compound: CC(C)(S)[C@@H](N)C(=O)O
Label class: inactive
--
Compound: CC(=O)O[C@@H]1CC2C(C)(C)[C@@H](O)CC[C@]2(C)C2CC[C@@]3(C)[C@H](c4ccoc4)OC(=O)[C@H]4O[C@]43[C@@]21C (some centres undefined)
Label class: inactive
--
Compound: CC(=O)O[C@H]1CC[C@@]2(C)C(C[C@@H](OC(C)=O)[C@]3(C)C2CC[C@@]2(C)[C@H](c4ccoc4)OC(=O)[C@H]4O[C@]423)C1(C)C (some centres undefined)
Label class: inactive
--
Compound: N[C@@H](C(=O)O)[C@@H](O)[C@H](O)[C@H](O)CO
Label class: inactive
--
Compound: O=C(O)C(O)C(O)C(=O)O (centres undefined)
Label class: inactive
--
Compound: Nc1nc(F)nc2c1ncn2[C@@H]1O[C@H](COP(=O)(O)O)[C@@H](O)[C@@H]1O
Label class: inactive
--
Compound: CC(=O)O[C@@H]1CC2C(C)(C)[C@H](O)CC[C@]2(C)C2CC[C@@]3(C)[C@H](c4ccoc4)OC(=O)C4OC43[C@@]21C (some centres undefined)
Label class: inactive
--
Compound: CC(=O)O[C@@H]1CC2C(C)(C)[C@H](O)C=C[C@]2(C)C2CC[C@@]3(C)[C@H](c4ccoc4)OC(=O)C4OC43[C@@]21C (some centres undefined)
Label class: inactive
